# Test system: Canis familiaris
# METHOD_NOTES: Percent change in renal blood flow by 1.2 mg/kg of compound administered intravenously in dog
# Assay type: functional, Canis lupus familiaris, Kidney
# ASSAY_SETUP: route intravenous
Binary call on Change: t from 10% upward, f beneath that.

Before answering, review these 3 worked examples.
I'd appreciate it if you could say whether "COc1cc2c(C)nc(O)c(NC(=O)NC3CCCCC3)c2cc1OC" has Change at least equal to 10%. f

I'd appreciate it if you could say whether "COc1cc2c(C)nc(O)c(N)c2cc1OC" has Change at least equal to 10%. t

I'd appreciate it if you could say whether "CCCCNC(=O)Nc1c(O)nc(C)c2cc(OC)c(OC)cc12" has Change at least equal to 10%. t

***
I'd appreciate it if you could say whether "COc1cccc(NC(=O)Nc2c(O)nc(C)c3cc(OC)ccc23)c1" has Change at least equal to 10%. t

I'd appreciate it if you could say whether "CCCCNC(=O)Nc1c(O)nc(C)c2cc(OC)ccc12" has Change at least equal to 10%. f

I'd appreciate it if you could say whether "COc1cc2c(C)nc(O)c(NC(=O)Nc3ccc(C(=O)O)cc3)c2cc1OC" has Change at least equal to 10%. t

I'd appreciate it if you could say whether "COc1cc2c(C)nc(O)c(NC(=O)NC(C)C)c2cc1OC" has Change at least equal to 10%. t

I'd appreciate it if you could say whether "CCOC(=O)c1ccc(NC(=O)Nc2c(O)nc(C)c3cc(OC)c(OC)cc23)cc1" has Change at least equal to 10%. f

I'd appreciate it if you could say whether "COc1cc2c(C)nc(O)c(NC(=O)Nc3ccc([N+](=O)[O-])cc3)c2cc1OC" has Change at least equal to 10%. f

I'd appreciate it if you could say whether "CNC(=O)Nc1c(O)nc(C)c2cc(OC)c(OC)cc12" has Change at least equal to 10%. f

I'd appreciate it if you could say whether "COc1cc2c(C)nc(O)c(NC(=O)Nc3ccccc3)c2cc1OC" has Change at least equal to 10%. f

* * *

# Test system: Canis familiaris
# METHOD_NOTES: Percent change in mean arterial blood pressure by 1.2 mg/kg of compound administered intravenously in dog
# Assay type: functional, Canis lupus familiaris
# ASSAY_SETUP: route intravenous
REPORTED_METRIC: Change (%)
Your answer should be a plain number; it is taken to be in %.

Look over these answered cases.
Log: Canis familiaris, compound "COc1cc2c(C)nc(O)c(NC(=O)Nc3ccc([N+](=O)[O-])cc3)c2cc1OC" , Change = 1

Log: Canis familiaris, compound "COc1cc2c(C)nc(O)c(NC(=O)NC(C)C)c2cc1OC" , Change = -9

Log: Canis familiaris, compound "C=CCNC(=O)Nc1c(O)nc(C)c2cc(OC)c(OC)cc12" , Change = 8

Log: Canis familiaris, compound "COc1cccc(NC(=O)Nc2c(O)nc(C)c3cc(OC)ccc23)c1" , Change = 2

Log: Canis familiaris, compound "CCCNC(=O)Nc1c(O)nc(C)c2cc(OC)c(OC)cc12" , Change = 1

Here's the next entry for you.
Log: Canis familiaris, compound "CCCCNC(=O)Nc1c(O)nc(C)c2cc(O)c(O)cc12" , Change = -1
